tested on: human adipocytes; test: incorporation of [2-14C]-acetate into lipids (LIPOGENESIS) by isolated human adipocytes; format: cell-based; details: 1 mM (10^−3 M); absence of insulin; 4 h
Field: Average of cpm (incorporation of acetate). Provide a value for each of the compounds that follow.
One number for each entry, in cpm.

compound	measured.result
CC/C=C\C/C=C\C/C=C\C/C=C\C/C=C\CCCC(=O)O [EPA, eicosapentanoic acid, reference compound]	1287
CC(C)[C@H](C)CC[C@@H](C)[C@H]1CC[C@H]2[C@@H]3CC=C4C[C@@H](O)CC[C@]4(C)[C@H]3CC[C@]12C	156448
CC[C@H](CC[C@@H](C)[C@H]1CC[C@H]2[C@@H]3CC=C4C[C@@H](O)CC[C@]4(C)[C@H]3CC[C@]12C)C(C)C	175711

Pending compound:
Fill blank: measured Average of cpm (incorporation of acetate) of the compound CC[C@H](/C=C/[C@@H](C)[C@H]1CC[C@H]2[C@@H]3CC=C4C[C@@H](O)CC[C@]4(C)[C@H]3CC[C@]12C)C(C)C is ____.
210055

---

Tested on: human adipocytes
Assay: incorporation of [2-14C]-acetate into lipids (LIPOGENESIS) by isolated human adipocytes
Format: cell-based
Details: 0.1 mM (10^−4 M); absence of insulin; 4 h
Procedure: In these experiments, adipocytes were isolated from abdominal restorative surgeries sampled in women. The experiment took place the day of the sampling. […] At the times indicated, the samples were frozen at −80° C. […] The radioactivity incorporated was then counted by liquid scintillation.
Can you tell me cpm - t0 test (incorporation of acetate) for the items I'm about to list?
One number for each entry, in cpm.

compound	experimental.target	cpm - t0 test (incorporation of acetate) / cpm
CC[C@H](/C=C/[C@@H](C)[C@H]1CC[C@H]2[C@@H]3CC=C4C[C@@H](O)CC[C@]4(C)[C@H]3CC[C@]12C)C(C)C	human adipocytes	194002
CC(C)[C@H](C)CC[C@@H](C)[C@H]1CC[C@H]2[C@@H]3CC=C4C[C@@H](O)CC[C@]4(C)[C@H]3CC[C@]12C	human adipocytes	181813
CC[C@H](CC[C@@H](C)[C@H]1CC[C@H]2[C@@H]3CC=C4C[C@@H](O)CC[C@]4(C)[C@H]3CC[C@]12C)C(C)C	human adipocytes	192229

Query compound follows.
Param readout = cpm - t0 test (incorporation of acetate); param system = human adipocytes; param query = CC/C=C\C/C=C\C/C=C\C/C=C\C/C=C\CCCC(=O)O [EPA, eicosapentanoic acid, reference compound] ; response: value
36788
